# system: LSD1 (Homo sapiens)
# experimentNotes: LSD1 DELFIA
# Format: biochemical
# conditionSummary: read-out: Target #1 IC50
measuredProperty: IC50

Below: 4 compounds and their reported IC50.
{"columns": ["compound", "reportedMeasurement"],
 "data": [
  ["O=[N+]([O-])[O-].O=[N+]([O-])[O-].O=[N+]([O-])[O-].[Al+3] [Al(NO3)3, Aluminum nitrate]", "1 to 10 µM"],
  ["[Cl][Au]([Cl])[Cl] [AuCl3, Gold(III) chloride]", "1 to 10 µM"],
  ["[Cl-].[Cl-].[Mg+2] [MgCl2, Magnesium chloride]", "> 10 µM"],
  ["[Cl-].[Cl-].[Zn+2] [ZnCl2, Zinc(II) chloride]", "> 10 µM"]
]}

// query Respond only with IC50 recorded for [Cl][Pd][Cl] [PdCl2, Palladium(II) chloride]
// result 1 to 10 µM

// query Identify the reported IC50 for the following entry. [Cl][Cu][Cl] [CuCl2, Copper(II) chloride]
// result > 10 µM

====

Parameter: pIC50. Scope: all listed entries.
# system: UniProt:Q07889
# experimentNotes: SOS1 AlphaScreen, Target #1
# Type: biochemical
pIC50: −log10 of the molar value.

{"columns": ["compound", "pIC50"],
 "data": [
  ["[Cl][Pd][Cl] [PdCl2, Palladium(II) chloride]", "> 6.00"],
  ["CC(=O)[O-].[Ag+] [Ag (CH 3COO), Silver acetate]", "> 6.00"],
  ["[Cl-].[Cl-].[Mg+2] [MgCl2, Magnesium chloride]", "< 5.00"]
]}

// query State, for UniProt:Q07889, measured pIC50 of the compound listed here: [Cl][Ni][Cl] [NiCl2, Nickel(II) chloride]
// result < 5.00

// query For UniProt:Q07889, give pIC50 of the listed compound: [Cl][Sn][Cl] [SnCl2, Tin(II) chloride]
// result < 5.00

====

Consider the following IC50 values measured on WRN (int.) (Homo sapiens).

{"columns": ["molecule", "system", "IC50"],
 "data": [
  ["[Cl][Au]([Cl])[Cl] [AuCl3, Gold(III) chloride]", "WRN (int.) (Homo sapiens)", "> 10 µM"],
  ["[Cl][Ni][Cl] [NiCl2, Nickel(II) chloride]", "WRN (int.) (Homo sapiens)", "> 10 µM"]
]}

Shifting focus to the molecule that follows.
// query Report IC50, nothing else, for this molecule: [Cl][Pd][Cl] [PdCl2, Palladium(II) chloride]
// result < 1 µM

====

Reported values of IC50 for individual entries
# system: SOS1 (Homo sapiens)
# experimentNotes: SOS1 TR-FRET
# Format: biochemical
# conditionSummary: read-out: Target #1 IC50
# Experimental: Metal salt solutions for the metal ion interference set (MIIS) were prepared as 10 mM stock solutions in DMSO (see Table 3). All metal salts used have been purchased at highest industrial grade.

Known IC50 results, listed for orientation:
{"columns": ["compound", "IC50"],
 "data": [
  ["[Cl][Au]([Cl])[Cl] [AuCl3, Gold(III) chloride]", "< 1 µM"],
  ["CC(=O)[O-].[Ag+] [Ag (CH 3COO), Silver acetate]", "< 1 µM"],
  ["[Cl][Mn][Cl] [MnCl2, Manganese(II) chloride]", "> 10 µM"],
  ["[Cl][Fe][Cl] [FeCl2, Iron(II) chloride]", "1 to 10 µM"],
  ["O=[N+]([O-])[O-].O=[N+]([O-])[O-].O=[N+]([O-])[O-].[Al+3] [Al(NO3)3, Aluminum nitrate]", "> 10 µM"]
]}

// query # return recorded IC50 for entry [Cl][Cu][Cl] [CuCl2, Copper(II) chloride]
// result > 10 µM

// query Respond only with IC50 recorded for [Cl-].[Cl-].[Zn+2] [ZnCl2, Zinc(II) chloride]
// result > 10 µM
